TGT: T1, soluble CD73 dimer (human, UniProt P21589 27-549, limits assumed)
T1 construct: CD73 in the flow (SPR) or in solution (BLI binning); also called soluble human CD73
T1 sequence: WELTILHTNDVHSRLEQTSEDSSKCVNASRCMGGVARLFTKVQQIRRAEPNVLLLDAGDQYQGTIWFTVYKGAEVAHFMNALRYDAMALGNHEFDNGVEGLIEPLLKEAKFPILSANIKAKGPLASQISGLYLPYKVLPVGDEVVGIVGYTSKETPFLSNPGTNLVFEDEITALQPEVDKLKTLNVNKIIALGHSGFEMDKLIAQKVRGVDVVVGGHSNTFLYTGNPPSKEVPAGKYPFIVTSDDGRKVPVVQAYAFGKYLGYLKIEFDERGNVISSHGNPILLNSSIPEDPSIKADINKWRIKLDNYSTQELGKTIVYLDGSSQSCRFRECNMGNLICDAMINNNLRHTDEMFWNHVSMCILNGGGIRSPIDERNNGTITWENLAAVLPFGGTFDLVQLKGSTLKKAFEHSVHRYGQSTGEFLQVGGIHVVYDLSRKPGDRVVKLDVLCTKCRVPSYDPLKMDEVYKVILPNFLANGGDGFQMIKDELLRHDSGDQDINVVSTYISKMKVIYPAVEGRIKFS
PROTOCOL DETAILS: SPR, antibody captured on Protein A chip, CD73 in flow; Langmuir 1:1 fit
Record form. Attribute: koff. Fill in for each entry.
Just the number in s⁻¹, nothing appended.

Query string: Fill in reported koff for this entry: E3.2/TB19 (bispecific antibody, part only; not given: E3.2 arm; constant regions, V domains shown, part only) VH: QEQLQESGPGLVKPSETLSLTCTVSGGSIRNNYYNWIRQPAGKGLEWIGRIYISGTTNSNPSLKSRVTMSIDTSKNQFSLKLSSVTAADTAIYYCAREHYVSGTSLDNWGQGTLVTVSS VL: EIVMTQSPTTLSLSPGERATLSCRASQSVNTNYFSWYQQKPGLTPRLLIYGTSTRATGIPARFSGSGSGTDFTLTISSLQPEDFGIYYCQQDYNLPYTFGQGTYLEIK
Result string: 0.000164

Query string: Dear colleague, please send me the reported koff for CL25/TB19 (bispecific antibody, part only; not given: CL25 arm; constant regions, V domains shown, part only) VH: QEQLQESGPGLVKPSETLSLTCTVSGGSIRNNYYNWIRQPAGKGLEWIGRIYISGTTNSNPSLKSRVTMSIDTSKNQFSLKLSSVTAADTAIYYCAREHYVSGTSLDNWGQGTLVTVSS VL: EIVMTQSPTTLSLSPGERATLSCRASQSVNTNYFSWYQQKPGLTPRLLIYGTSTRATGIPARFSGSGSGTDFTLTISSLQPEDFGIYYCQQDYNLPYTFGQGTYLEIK when you can.
Result string: 0.00013

Query string: Tell us which koff value is on record for TB19/H7 (bispecific antibody, part only; not given: H7 arm; constant regions, V domains shown, part only) VH: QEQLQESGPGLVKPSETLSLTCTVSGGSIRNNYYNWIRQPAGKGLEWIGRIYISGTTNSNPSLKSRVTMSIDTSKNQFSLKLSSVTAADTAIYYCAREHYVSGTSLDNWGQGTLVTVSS VL: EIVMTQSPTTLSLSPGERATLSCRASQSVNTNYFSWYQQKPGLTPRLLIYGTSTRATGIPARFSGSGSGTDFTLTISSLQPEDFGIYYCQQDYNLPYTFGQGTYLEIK
Result string: 0.000149

Query string: Please report koff for the following binder: TB19/H19 (bispecific antibody, part only; not given: H19 arm; constant regions, V domains shown, part only) VH: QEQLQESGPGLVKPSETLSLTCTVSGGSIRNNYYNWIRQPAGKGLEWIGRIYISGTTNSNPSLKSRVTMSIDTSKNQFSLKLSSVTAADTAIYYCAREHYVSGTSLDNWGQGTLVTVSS VL: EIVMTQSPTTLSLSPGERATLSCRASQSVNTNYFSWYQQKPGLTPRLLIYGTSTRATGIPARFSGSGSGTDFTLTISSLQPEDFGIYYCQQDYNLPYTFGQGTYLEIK
Result string: 0.000112

Query string: For the binder TB19/AS30 (bispecific antibody, part only; not given: AS30 arm, constant regions, V domains shown, not shown: another chain or arm of the molecule; a dimerising Fc or GST; small tags and cut ends) VH: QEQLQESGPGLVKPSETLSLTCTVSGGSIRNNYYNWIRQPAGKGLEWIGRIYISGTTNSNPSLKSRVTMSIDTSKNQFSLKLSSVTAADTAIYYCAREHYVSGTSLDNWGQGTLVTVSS VL: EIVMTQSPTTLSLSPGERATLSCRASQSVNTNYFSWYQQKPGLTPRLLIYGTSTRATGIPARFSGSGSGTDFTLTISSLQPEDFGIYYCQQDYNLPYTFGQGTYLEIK , report koff.
Result string: 0.00069

Query string: # return recorded koff for entry TB19/TC29 (bispecific antibody, part only; not given: TC29 arm; constant regions, V domains shown, part only) VH: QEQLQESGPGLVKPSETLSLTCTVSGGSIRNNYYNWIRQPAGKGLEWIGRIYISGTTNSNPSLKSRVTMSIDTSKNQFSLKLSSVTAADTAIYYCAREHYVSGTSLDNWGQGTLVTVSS VL: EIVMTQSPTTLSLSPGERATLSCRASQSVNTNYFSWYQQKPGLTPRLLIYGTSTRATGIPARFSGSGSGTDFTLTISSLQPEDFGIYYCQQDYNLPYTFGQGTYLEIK
Result string: 8.96e-05
